# assay details: Selectivity ratio of IC50 for TCPTP to IC50 for PTP1B
Short version: Ratio IC50 at least 90 is fulfilled, less is not fulfilled.

{"query smiles": "O=C(O)COc1ccc(S(=O)(=O)N(Cc2ccc(-c3csnn3)cc2)Cc2ccc(C(F)(F)P(=O)(O)O)c(F)c2)cc1", "label value": "not fulfilled"}
{"query smiles": "O=C(c1ccccc1)C(Cc1ccc2cc(Br)c(C(F)(F)P(=O)(O)O)cc2c1)(Cc1ccc2cc(Br)c(C(F)(F)P(=O)(O)O)cc2c1)n1nnc2ccccc21", "label value": "fulfilled"}
{"query smiles": "O=C(O)COc1ccc(S(=O)(=O)N(Cc2ccc(-c3csnn3)cc2)Cc2ccc(C(F)(F)P(=O)(O)O)c(Br)c2)cc1", "label value": "not fulfilled"}
{"query smiles": "NS(=O)(=O)C(F)(F)c1ccc(CN(Cc2ccc(-c3csnn3)cc2)S(=O)(=O)c2ccc(OCC(=O)O)cc2)cc1F", "label value": "not fulfilled"}
{"query smiles": "O=C(O)COc1ccc(S(=O)(=O)N(Cc2ccc(-c3csnn3)cc2)Cc2ccc(C(F)(F)P(=O)(O)O)cc2)cc1", "label value": "not fulfilled"}
{"query smiles": "O=C(O)COc1ccc(S(=O)(=O)N(Cc2ccc(-c3csnn3)cc2)Cc2ccc3cc(F)c(C(F)(F)P(=O)(O)O)cc3c2)cc1", "label value": "fulfilled"}
